tested on: JIYOYE; test: cells; type: functional, cell-based; settings: Homo sapiens
Description: SANGER: Inhibition of human JiyoyeP-2003 cell growth in a cell viability assay.
The reader will find reported IC50 values listed item by item below.

Here's what some known entries look like.
molecule="O=C(/C=C/c1ccccc1)NC(NC(=S)Nc1cccc2cccnc12)C(Cl)(Cl)Cl (centres undefined)" data_value="> 16 µM"
molecule=CS(=O)(=O)CCNCc1ccc(-c2ccc3ncnc(Nc4ccc(OCc5cccc(F)c5)c(Cl)c4)c3c2)o1 data_value="> 2 µM"
molecule=Cc1cc([C@@H](C)Nc2ccccc2C(=O)O)c2nc(N3CCOCC3)cc(=O)n2c1 data_value="> 5.12 µM"

Next molecule, IC50 to be filled in.
### Prompt Return the recorded IC50 value; entry: C=C1C(=O)O[C@@H]2C3O[C@]3(C)CC/C=C(\C)CC[C@@H]12 (some centres undefined)
### Response > 5 µM
